biological target: EGFR (d746-750) (Homo sapiens, UniProt P00533, DEL746-750); construct: purchased SignalChem E10-122JG; experiment: Biochemical EGFR inhibition assay (Caliper mobility shift), EGFR (d746-750); conditions: read-out: Enz EGFR_Exon19-del746-750 IC50
Reported IC50 values for a set of molecules

COc1cn(C)nc1-c1cc(O[C@H](C)CN(C)C)c2c(Nc3ccc4ncccc4c3F)ncnc2c1    < 10 nM
C[C@H](Oc1cc(-c2cnn(C)c2)cc2ncnc(Nc3ccc4ncccc4c3F)c12)[C@@H]1COCCN1    > 50.1 nM
[2H]c1ccc2cc(Nc3ncnc4cc(-c5cnn(C)c5)cc(O[C@H](C)CN(C)C)c34)ccc2n1    < 10 nM

Shifting focus to the molecule that follows.
Bench note: what IC50 did `CN(C)CC1(COc2cc(-c3cnn(C)c3)cc3ncnc(Nc4ccc5ncccc5c4F)c23)COC1` show? < 10 nM

====

target: intracellular phosphorylation of EGFR (Tyr1068) in PC-9 cells (Ex19Del) (Homo sapiens, UniProt P00533, DEL746-750); test: PC-9 pEGFR AlphaLISA assay; settings: 4 hours compound incubation, read-out: Ext pEGFR_PC-9 Ex19Del IC50
Sequence (P00533 with tags, fused parts or gaps DEL746-750): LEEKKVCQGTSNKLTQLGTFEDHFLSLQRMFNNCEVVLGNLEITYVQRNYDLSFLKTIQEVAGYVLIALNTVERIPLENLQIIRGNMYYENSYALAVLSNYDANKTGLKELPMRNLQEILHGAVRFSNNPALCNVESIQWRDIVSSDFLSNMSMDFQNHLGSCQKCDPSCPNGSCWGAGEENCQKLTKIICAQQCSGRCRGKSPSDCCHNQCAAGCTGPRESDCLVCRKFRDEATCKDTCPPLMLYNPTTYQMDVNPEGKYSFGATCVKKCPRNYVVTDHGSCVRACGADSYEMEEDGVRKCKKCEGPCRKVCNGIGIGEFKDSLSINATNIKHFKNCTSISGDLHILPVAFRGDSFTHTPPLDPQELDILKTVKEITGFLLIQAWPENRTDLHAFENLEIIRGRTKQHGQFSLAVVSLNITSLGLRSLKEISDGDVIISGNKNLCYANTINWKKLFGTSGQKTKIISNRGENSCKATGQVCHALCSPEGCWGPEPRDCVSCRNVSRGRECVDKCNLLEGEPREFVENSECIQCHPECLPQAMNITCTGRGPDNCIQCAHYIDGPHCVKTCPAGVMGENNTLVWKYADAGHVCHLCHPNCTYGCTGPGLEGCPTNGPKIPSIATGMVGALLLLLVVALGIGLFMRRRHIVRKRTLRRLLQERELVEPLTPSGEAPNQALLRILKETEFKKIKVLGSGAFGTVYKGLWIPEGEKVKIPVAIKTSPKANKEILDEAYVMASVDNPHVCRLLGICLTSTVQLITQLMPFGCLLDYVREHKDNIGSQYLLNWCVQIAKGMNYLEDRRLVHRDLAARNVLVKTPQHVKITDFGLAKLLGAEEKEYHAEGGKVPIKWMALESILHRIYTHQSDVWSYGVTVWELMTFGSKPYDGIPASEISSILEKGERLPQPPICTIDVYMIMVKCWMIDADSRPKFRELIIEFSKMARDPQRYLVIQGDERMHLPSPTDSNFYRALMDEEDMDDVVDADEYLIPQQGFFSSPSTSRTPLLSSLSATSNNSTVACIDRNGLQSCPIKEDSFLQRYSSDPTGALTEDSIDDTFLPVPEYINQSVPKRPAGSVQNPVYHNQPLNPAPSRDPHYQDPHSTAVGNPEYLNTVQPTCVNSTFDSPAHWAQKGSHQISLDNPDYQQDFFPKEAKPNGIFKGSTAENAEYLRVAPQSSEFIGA
pIC50: −log10 of the molar value.
Reported pIC50 values for a set of compounds

Bench note: what pIC50 did COC1CCN(c2cc(O[C@H](C)C3COC3)c3c(Nc4ccc5ncccc5c4F)ncnc3c2)C1 (mixture of isomers) show? ≥ 8.00

====

Reported pIC50 values for a set of compounds
biological target: EGFR (d746-750) (Homo sapiens, UniProt P00533, DEL746-750); construct: purchased SignalChem E10-122JG; assay: Biochemical EGFR inhibition assay (Caliper mobility shift), EGFR (d746-750); conditions: 1.0 mM ATP or ATP Km; room temperature (25° C.); read-out: Enz EGFR_Exon19-del746-750 IC50
pIC50: −log10 of the molar value.

C[C@H](Oc1cc(-c2cnn(C)c2)cc2ncnc(Nc3ccc4ncccc4c3F)c12)C1CCOCC1    > 8.00
C[C@@H](Oc1cc(-c2cnn(C)c2)cc2ncnc(Nc3ccc4ncccc4c3F)c12)[C@@H]1COCCN1C (single isomer, unassigned) [Example 125]    > 8.00

Shifting focus to the compound that follows.
Bench note: what pIC50 did CC[C@H](Oc1cc(-c2cnn(C)c2)cc2ncnc(Nc3ccc4ncccc4c3F)c12)C1COC1 (single isomer, unassigned) show? > 8.00

====

biological target: EGFR L858R (Homo sapiens, UniProt P00533, L858R); construct: purchased SignalChem E10-122BG; assay: Biochemical EGFR inhibition assay (Caliper mobility shift), EGFR L858R; conditions: read-out: Enz EGFR_L858R IC50
Sequence (P00533 25-1210 L858R): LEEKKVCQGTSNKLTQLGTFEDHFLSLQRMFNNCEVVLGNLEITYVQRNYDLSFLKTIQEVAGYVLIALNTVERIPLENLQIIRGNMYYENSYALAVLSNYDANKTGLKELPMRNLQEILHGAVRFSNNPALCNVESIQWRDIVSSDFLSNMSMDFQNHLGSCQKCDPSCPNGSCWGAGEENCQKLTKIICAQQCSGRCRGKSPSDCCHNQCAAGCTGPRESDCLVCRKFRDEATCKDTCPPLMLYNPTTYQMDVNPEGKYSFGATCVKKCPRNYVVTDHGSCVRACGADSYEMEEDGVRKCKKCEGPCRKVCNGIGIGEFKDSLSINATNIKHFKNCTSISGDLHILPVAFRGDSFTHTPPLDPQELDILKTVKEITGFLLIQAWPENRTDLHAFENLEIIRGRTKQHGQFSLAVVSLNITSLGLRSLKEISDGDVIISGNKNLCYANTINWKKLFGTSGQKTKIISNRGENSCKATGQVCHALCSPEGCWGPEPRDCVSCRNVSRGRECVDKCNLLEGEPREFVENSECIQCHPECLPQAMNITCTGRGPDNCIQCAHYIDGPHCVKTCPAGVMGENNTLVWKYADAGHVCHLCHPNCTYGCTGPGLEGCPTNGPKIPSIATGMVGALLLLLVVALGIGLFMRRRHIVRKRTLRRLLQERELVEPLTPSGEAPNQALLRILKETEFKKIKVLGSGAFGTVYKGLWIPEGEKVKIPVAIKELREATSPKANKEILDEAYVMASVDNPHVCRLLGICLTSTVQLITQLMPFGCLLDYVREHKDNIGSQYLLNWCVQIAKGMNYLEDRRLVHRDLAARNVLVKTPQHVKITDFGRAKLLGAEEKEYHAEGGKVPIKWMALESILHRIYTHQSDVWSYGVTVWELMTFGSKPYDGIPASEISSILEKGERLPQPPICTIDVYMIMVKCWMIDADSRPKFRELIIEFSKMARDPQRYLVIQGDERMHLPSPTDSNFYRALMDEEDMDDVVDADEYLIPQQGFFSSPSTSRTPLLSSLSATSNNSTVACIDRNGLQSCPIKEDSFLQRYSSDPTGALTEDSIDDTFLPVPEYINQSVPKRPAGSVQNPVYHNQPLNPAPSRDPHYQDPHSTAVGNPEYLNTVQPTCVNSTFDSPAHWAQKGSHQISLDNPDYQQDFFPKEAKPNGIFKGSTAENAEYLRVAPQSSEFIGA
Reported IC50 values for a set of molecules

C[C@H](CN(C)C)Oc1cc(N2CC3CC(C2)N3)cc2ncnc(Nc3ccc4ncccc4c3F)c12 [Example 150]    > 0.0501 µM
C[C@H](CN(C)C)Oc1cc(C2CC2)cc2ncnc(Nc3ccc4ncccc4c3F)c12 [Example 149]    > 0.0501 µM
C[C@H](CN(C)C)Oc1cc(-c2cnn(C)c2)cc2ncnc(Nc3cc(F)c4ncccc4c3F)c12 [Example 10]    < 0.01 µM
CC(=O)N1CC2(C1)CN(c1cc(O[C@H](C)CN(C)C)c3c(Nc4ccc5ncccc5c4F)ncnc3c1)C2 [Example 154]    < 0.01 µM
C[C@H](CN(C)C)Oc1cc(N2CC3(CCS3(=O)=O)C2)cc2ncnc(Nc3ccc4ncccc4c3F)c12 [Example 97]    < 0.01 µM

Bench note: what IC50 did C[C@@H](Oc1cc(N2CCOCC2)cc2ncnc(Nc3ccc4ncccc4c3F)c12)C1COC1 [Example 61] show? < 0.01 µM

Bench note: what IC50 did C[C@H](CN(C)C1CC1)Oc1cc(-c2cnn(C)c2)cc2ncnc(Nc3ccc4ncccc4c3F)c12 [Example 114] show? < 0.01 µM

Bench note: what IC50 did CN(C)C1(COc2cc(-c3cnn(C)c3)cc3ncnc(Nc4ccc5ncccc5c4F)c23)COC1 [Example 21] show? 0.0101 to 0.05 µM

Bench note: what IC50 did C[C@H](CN(C)C)Oc1cc(N(C)C)cc2ncnc(Nc3ccc4ncccc4c3F)c12 [Example 153] show? 0.0101 to 0.05 µM

Bench note: what IC50 did C[C@H](CO)Oc1cc(-c2cnn(C)c2)cc2ncnc(Nc3ccc4ncccc4c3F)c12 [Example 135] show? < 0.01 µM

Bench note: what IC50 did C[C@H](CN(C)C)Oc1cc(-c2cnn(C)c2)cc2ncnc(Nc3cc(O)c4ncccc4c3F)c12 [Example 122] show? < 0.01 µM

Bench note: what IC50 did C[C@H](CN(C)C)Oc1cc(-c2cnn(C)c2)cc2ncnc(Nc3ccc4cccnc4c3)c12 [Example 13] show? < 0.01 µM

Bench note: what IC50 did C[C@H](CN(C)C)Oc1cc(N2CCOC[C@@H]2CO)cc2ncnc(Nc3ccc4ncccc4c3F)c12 [Example 92] show? 0.0101 to 0.05 µM

Bench note: what IC50 did C[C@H](CN(C)C)Oc1cc(N2CC[C@H](C(C)(C)O)C2)cc2ncnc(Nc3ccc4ncccc4c3F)c12 [Example 73] show? < 0.01 µM

Bench note: what IC50 did CN1CCC(Oc2cc(-c3cnn(C)c3)cc3ncnc(Nc4ccc5ncccc5c4F)c23)CC1 [Example 50] show? < 0.01 µM

Bench note: what IC50 did C[C@H](CN(C)C)Oc1cc(-c2cnn(C)c2)cc2ncnc(Nc3cnc4ncccc4c3)c12 [Example 40] show? 0.0101 to 0.05 µM

====

molecular target: intracellular phosphorylation of EGFR (Tyr1068) in PC-9 cells (Ex19Del) (Homo sapiens, UniProt P00533, DEL746-750); test: PC-9 pEGFR AlphaLISA assay; conditions: 4 hours compound incubation, read-out: Ext pEGFR_PC-9 Ex19Del IC50
pIC50: −log10 of the molar value.
observed.property: pIC50

The cases that follow already have their pIC50 on record.
C[C@H](CN(C)C)Oc1cc(N2CCO[C@@H](C(F)F)C2)cc2ncnc(Nc3ccc4ncccc4c3F)c12 (single isomer, unassigned) [Example 99b]    7.30 to 8.00
C[C@H](CN(C)C)Oc1cc(-c2cnn(C)c2)cc2ncnc(Nc3ccc4c(ccc[n+]4[O-])c3F)c12 (single isomer, unassigned) [Example 129]    7.30 to 8.00
C[C@H](CN(C)C)Oc1cc(C2CC2)cc2ncnc(Nc3ccc4ncccc4c3F)c12 [Example 149]    < 7.30
C[C@@H](Oc1cc(N2CC[C@@H](N(C)C)C2)cc2ncnc(Nc3ccc4ncccc4c3F)c12)C1COC1 [Example 79]    ≥ 8.00
C[C@H](CN(C)C)Oc1cc(-n2cc(F)cn2)cc2ncnc(Nc3ccc4ncccc4c3F)c12 [Example 82]    ≥ 8.00
COCC(CO)[C@@H](C)Oc1cc(-c2cnn(C)c2)cc2ncnc(Nc3ccc4ncccc4c3F)c12 (stereo partly shown) [Example 112]    ≥ 8.00
C[C@@H](CN(C)C)Oc1cc(N2CC3CC(C2)O3)cc2ncnc(Nc3ccc4ncccc4c3)c12 (single isomer, unassigned) [Example 68]    ≥ 8.00
C[C@H](CN(C)C)Oc1cc(-c2cn[nH]c2)cc2ncnc(Nc3ccc4ncccc4c3F)c12 [Example 49]    ≥ 8.00
C[C@@H](Oc1cc(-c2cnn(C)c2)cc2ncnc(Nc3ccc4ncccc4c3F)c12)[C@@H]1COCCN1 (single isomer, unassigned) [Example 124]    7.30 to 8.00
C[C@H](Oc1cc(-c2cnn(C)c2)cc2ncnc(Nc3ccc4ncccc4c3F)c12)[C@@H]1CCCN1C (single isomer, unassigned) [Example 148]    < 7.30

Bench note: what pIC50 did C[C@H](Oc1cc(-c2cnn(C)c2)cc2ncnc(Nc3ccc4ncccc4c3F)c12)[C@@H]1CCCN1C (single isomer, unassigned) [Example 146] show? ≥ 8.00

Bench note: what pIC50 did C[C@H](CO)Oc1cc(-c2cnn(C)c2)cc2ncnc(Nc3ccc4ncccc4c3F)c12 [Example 135] show? ≥ 8.00

Bench note: what pIC50 did C[C@H](CN(C)C)Oc1cc(-c2cnn(C)c2)cc2ncnc(Nc3ccc4cccnc4c3F)c12 [Example 108] show? 7.30 to 8.00

Bench note: what pIC50 did CN(C)CC1(COc2cc(-c3cnn(C)c3)cc3ncnc(Nc4ccc5ncccc5c4F)c23)COC1 [Example 12] show? < 7.30

Bench note: what pIC50 did C[C@H](CN(C)C)Oc1cc(-c2cn(C)nc2OC(F)F)cc2ncnc(Nc3ccc4ncccc4c3F)c12 [Example 118] show? ≥ 8.00

Bench note: what pIC50 did C[C@H](CN(C)C1CCC1)Oc1cc(-c2cnn(C)c2)cc2ncnc(Nc3ccc4ncccc4c3F)c12 [Example 115] show? ≥ 8.00

Bench note: what pIC50 did C[C@H](CN(C)C)Oc1cc(-c2cnn(C)c2)cc2ncnc(Nc3ccc4nnccc4c3)c12 [Example 11] show? < 7.30

Bench note: what pIC50 did C[C@H](CN(C)C)Oc1cc(N2CC3(COC3)C2)cc2ncnc(Nc3c(F)cc4ncccc4c3F)c12 [Example 39] show? ≥ 8.00

Bench note: what pIC50 did CN1CCC(Oc2cc(-c3cnn(CC(F)F)c3)cc3ncnc(Nc4ccc5ncccc5c4F)c23)CC1 [Example 53] show? ≥ 8.00

Bench note: what pIC50 did C[C@@H](Oc1cc(-c2cnn(C)c2)cc2ncnc(Nc3cc(F)c4ncccc4c3F)c12)C1COC1 [Example 9] show? ≥ 8.00
